# Method: NCI Yeast Anticancer Drug Screen. Data for the rad50 strain (AID 155);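 further: 0% = growth of vehicle-only cultures of the same strain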
# Test parameters: S. cerevisiae rad50 strain growth inhibition; at 5.0 µM (retest, dose inferred, filed as 0.5); active compounds read high
This is part of a sample that, as a whole, favours compounds with a hit. Of some 79,000 tested, about 15% had one in any assay.
Please provide measured growth inhibition for the entries that follow.
Give bare numbers, in %.

N#CC12CCCC(=O)N1c1ccccc1S2 (stereo unspecified)    10
CC(C)N(C(=O)CC1(O)CCCCC1)C(C)C    2
COC(O)C(=O)c1ccc2c(c1)CC1(C2)Cc2cc3c(cc2C1=O)CCC3 (stereo unspecified)    28

Provide each entry's growth inhibition from the list below.
1. COc1ccc(N2C(=O)C(=O)C(C(C)=O)C2=O)cc1 (stereo unspecified)
2. COc1ccc(N=Cc2cc(Br)cc(Br)c2O)cc1.COc1ccc(N=Cc2cc(Br)cc(Br)c2O)cc1.[Co]
3. CCCCCCCCCCOC(=O)c1cccnc1
4. NNc1ccccc1[N+](=O)[O-]
5. C=C1C(C2(C)C(OC(C)=O)CC(=O)OC(C)(COC(C)=O)C2CC(=O)OC)C(OC=O)C(OC(=O)C(O)C(C)CC)C2(C)C(c3ccoc3)CC(=O)C12O (stereo unspecified)
6. O=C(N/C(=C/c1ccc(Cl)cc1Cl)c1nc2ccccc2s1)c1ccccc1
7. CCC#CC(O)(C(=O)OCC)C1CCCC1 (stereo unspecified)
8. C/C(=N\NC(=S)NNC(=S)N1CCCc2ccccc21)c1ccccn1

OUT:
-1
79
5
8
-15
27
-148
3

* * *

# Method: NCI Yeast Anticancer Drug Screen. Data for the cln2 rad14 strain (AID 165);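 further: 0% = growth equal to vehicle treated cultures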
# Test parameters: S. cerevisiae cln2 rad14 strain, at 50.0 µM (retest, dose inferred, filed as 5.0)
The panel holds about 79,000 compounds, 15% with a hit somewhere; the sample as a whole holds those more often. The source made the active and inactive calls. Cut-off read from the data, not from the text of the source: active = growth inhibition above about 70%; inactive = the rest.
Just give me one of these, please: active, inactive

The following molecules have reported results that may help.
N#CCN1CCCCCc2ccccc21    inactive
CCOC(=S)SSC(=S)NCCNC(=S)SSC(=S)OCC    inactive
OCC1(O)OCC(O)C(O)C1O (stereo unspecified)    inactive
CC(=O)OCC1OC(OC2CCCc3c(O)c4c(c(O)c32)C(=O)c2ccccc2C4=O)C(OC(C)=O)C(OC(C)=O)C1OC(C)=O (stereo unspecified)    active

IN: # fetch the recorded call for `CSC(C=P(c1ccccc1)(c1ccccc1)c1ccccc1)=Nc1ccccc1` here
OUT: active

IN: # fetch the recorded call for `Nc1[nH]cnc(=S)c1NC=O` here
OUT: inactive

IN: # fetch the recorded call for `Cc1nc(Nc2ccc(Cl)cc2)sc1C(=O)NNC(=S)NN` here
OUT: inactive

IN: # fetch the recorded call for `COc1ccc(NS(=O)(=O)c2ccc(N=Cc3c4ccccc4nc4cc(Cl)ccc34)cc2)nn1` here
OUT: inactive

IN: # fetch the recorded call for `O=C1C(Cl)=C(Nc2ccc(S(=O)(=O)Nc3ccccn3)cc2)C(=O)c2ccccc21` here
OUT: active

IN: # fetch the recorded call for COc1ccc2c(c1)OC(c1ccccc1O)CC2=O (stereo unspecified) here
OUT: inactive

IN: # fetch the recorded call for `CCCc1nc2c(nc1C)C(=O)C=CC2=O` here
OUT: active

IN: # fetch the recorded call for `CC(=O)NNc1ccc(Cl)cc1[N+](=O)[O-]` here
OUT: inactive

IN: # fetch the recorded call for `Nc1cc2c(c[n+](CCCBr)c3ccccc23)c2ccccc12` here
OUT: active

IN: # fetch the recorded call for `C=CC(=C)OC` here
OUT: inactive

IN: # fetch the recorded call for `SCCc1ccccn1` here
OUT: inactive

IN: # fetch the recorded call for `CC(CO)(CO)N=Cc1cc(I)cc(I)c1O` here
OUT: active

IN: # fetch the recorded call for `COc1ccc2ccnc(Cc3ccc(OCc4ccccc4)c(OC)c3)c2c1` here
OUT: inactive

IN: # fetch the recorded call for O=C(CC(C[N+](=O)[O-])c1ccc2c(c1)OCO2)c1ccccc1 (stereo unspecified) here
OUT: inactive
